Target: T1, recombinant human NKG2D-Fc (human, UniProt P26718 73-216)
T1 construct: extracellular domain; also called human NKG2D-Fc fusion protein; NKG2D-Fc-biotin; not shown: human IgG1 Fc domain
T1 sequence (looked up): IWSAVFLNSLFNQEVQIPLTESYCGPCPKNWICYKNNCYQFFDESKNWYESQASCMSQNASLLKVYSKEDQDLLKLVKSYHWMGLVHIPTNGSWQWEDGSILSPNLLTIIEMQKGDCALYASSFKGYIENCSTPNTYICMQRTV
Test: ELISA on coated NKG2D-Fc;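 note: titrated NKG2D-binding domains on plate-bound human, mouse or cynomolgus NKG2D ectodomain–human IgG1 Fc fusions, detected with HRP anti-human kappa secondary and TMB, absorbance at 450 nm corrected at 540 nm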

BINDER	binding result
ADI-27740 (antibody, V domains shown, also called A40) VH: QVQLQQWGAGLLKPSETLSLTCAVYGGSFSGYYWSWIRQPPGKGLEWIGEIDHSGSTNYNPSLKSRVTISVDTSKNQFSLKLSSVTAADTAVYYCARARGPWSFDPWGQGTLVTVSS VL: DIQMTQSPSTLSASVGDRVTITCRASQSIGSWLAWYQQKPGKAPKLLIYKASSLESGVPSRFSGSGSGTEFTLTISSLQPDDFATYYCQQYHSFYTFGGGTKVEIK	binds
ADI-27741 (antibody, V domains shown) VH: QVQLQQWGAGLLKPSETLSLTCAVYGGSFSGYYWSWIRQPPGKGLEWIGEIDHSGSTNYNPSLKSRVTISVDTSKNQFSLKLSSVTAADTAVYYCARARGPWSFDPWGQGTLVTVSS VL: DIQMTQSPSTLSASVGDRVTITCRASQSIGSWLAWYQQKPGKAPKLLIYKASSLESGVPSRFSGSGSGTEFTLTISSLQPDDFATYYCQQSNSYYTFGGGTKVEIK	binds
